# purity per record follows
- Assay Notes: Chemical stability by stress testing (high temperature, high humidity, illumination)
- Format: physicochemical
- Condition Info: High humidity (25° C., 92.5% RH), 5 days
Measurement Type: purity (%)

INSERT INTO measurements (compound, measurement_type, numeric_result) VALUES
  ('CCCOc1ccc(NC(=O)CN2CCN(C)CC2)cc1-c1nc(CC)c(CC)c(=O)[nH]1.Cl [hydrochlorate of compound Z]', 'purity', 99.73),
  ('CCCOc1ccc(NC(=O)CN2CCN(C)CC2)cc1-c1nc(CC)c(CC)c(=O)[nH]1', 'purity', 99.64),
  ('CCCOc1ccc(NC(=O)CN2CCN(C)CC2)cc1-c1nc(CC)c(CC)c(=O)[nH]1.CS(=O)(=O)O [methanesulfonate of compound Z]', 'purity', 99.54),
  ('CCCOc1ccc(NC(=O)CN2CCN(C)CC2)cc1-c1nc(CC)c(CC)c(=O)[nH]1.O=S(=O)(O)O [sulfate of compound Z]', 'purity', 99.64);

###

- Assay Notes: Chemical stability by stress testing (high temperature, high humidity, illumination)
- Assay type: physicochemical
- Condition Info: High humidity (25° C., 92.5% RH), 10 days
# purity per record follows
Measurement Type: purity (%)

INSERT INTO measurements (compound, measurement_type, numeric_result) VALUES
  ('CCCOc1ccc(NC(=O)CN2CCN(C)CC2)cc1-c1nc(CC)c(CC)c(=O)[nH]1.Cl [hydrochlorate of compound Z]', 'purity', 99.77),
  ('CCCOc1ccc(NC(=O)CN2CCN(C)CC2)cc1-c1nc(CC)c(CC)c(=O)[nH]1.O=S(=O)(O)O [sulfate of compound Z]', 'purity', 99.62),
  ('CCCOc1ccc(NC(=O)CN2CCN(C)CC2)cc1-c1nc(CC)c(CC)c(=O)[nH]1.CS(=O)(=O)O [methanesulfonate of compound Z]', 'purity', 99.55),
  ('CCCOc1ccc(NC(=O)CN2CCN(C)CC2)cc1-c1nc(CC)c(CC)c(=O)[nH]1', 'purity', 99.53);

###

- Assay Notes: Chemical stability by stress testing (high temperature, high humidity, illumination)
- Assay type: physicochemical
- Condition Info: illumination (4500 lx ± 500 lx), 10 days
Measurement Type: characters

INSERT INTO measurements (compound, measurement_type, result) VALUES
  ('CCCOc1ccc(NC(=O)CN2CCN(C)CC2)cc1-c1nc(CC)c(CC)c(=O)[nH]1.CS(=O)(=O)O [methanesulfonate of compound Z]', 'characters', 'White'),
  ('CCCOc1ccc(NC(=O)CN2CCN(C)CC2)cc1-c1nc(CC)c(CC)c(=O)[nH]1.Cl [hydrochlorate of compound Z]', 'characters', 'White');

###

- Assay Notes: Chemical stability by stress testing (high temperature, high humidity, illumination)
- Assay type: physicochemical
- Condition Info: 0 days
- Description: The chemical stability of the basic compound Z prepared in Example 16 and the salts of compound Z prepared in Examples 5, 9 and 10 was compared through a stress testing, the results were shown in the table below: […]
# purity per record follows
Measurement Type: purity

INSERT INTO assay_data (compound, measurement_type, result) VALUES
  ('CCCOc1ccc(NC(=O)CN2CCN(C)CC2)cc1-c1nc(CC)c(CC)c(=O)[nH]1.O=S(=O)(O)O [sulfate of compound Z]', 'purity', '99.63%'),
  ('CCCOc1ccc(NC(=O)CN2CCN(C)CC2)cc1-c1nc(CC)c(CC)c(=O)[nH]1 [compound Z]', 'purity', '99.6%'),
  ('CCCOc1ccc(NC(=O)CN2CCN(C)CC2)cc1-c1nc(CC)c(CC)c(=O)[nH]1.CS(=O)(=O)O [methanesulfonate of compound Z]', 'purity', '99.66%'),
  ('CCCOc1ccc(NC(=O)CN2CCN(C)CC2)cc1-c1nc(CC)c(CC)c(=O)[nH]1.Cl [hydrochlorate of compound Z]', 'purity', '99.77%');

###

- Assay Notes: Chemical stability by stress testing (high temperature, high humidity, illumination)
- Type: physicochemical
- Condition Info: high temperature (60° C.), 10 days
Measurement Type: characters

INSERT INTO measurements (compound, result) VALUES
  ('CCCOc1ccc(NC(=O)CN2CCN(C)CC2)cc1-c1nc(CC)c(CC)c(=O)[nH]1', 'White'),
  ('CCCOc1ccc(NC(=O)CN2CCN(C)CC2)cc1-c1nc(CC)c(CC)c(=O)[nH]1.Cl [hydrochlorate of compound Z]', 'White'),
  ('CCCOc1ccc(NC(=O)CN2CCN(C)CC2)cc1-c1nc(CC)c(CC)c(=O)[nH]1.CS(=O)(=O)O [methanesulfonate of compound Z]', 'White');

###

- Assay Notes: Chemical stability by stress testing (high temperature, high humidity, illumination)
- Format: physicochemical
- Condition Info: 0 days
Measurement Type: characters

INSERT INTO assay_data (compound, result) VALUES
  ('CCCOc1ccc(NC(=O)CN2CCN(C)CC2)cc1-c1nc(CC)c(CC)c(=O)[nH]1', 'White'),
  ('CCCOc1ccc(NC(=O)CN2CCN(C)CC2)cc1-c1nc(CC)c(CC)c(=O)[nH]1.Cl [hydrochlorate of compound Z]', 'White'),
  ('CCCOc1ccc(NC(=O)CN2CCN(C)CC2)cc1-c1nc(CC)c(CC)c(=O)[nH]1.CS(=O)(=O)O [methanesulfonate of compound Z]', 'White');

###

# solubility per record follows
- Assay Notes: Comparison of solubility of compound Z and its salts
- Assay type: physicochemical
- Condition Info: selected solvent of pH 2 (composition not named), simulated gastric fluid, thermodynamic from solid; pH = 2; read-out: Solubility
Measurement Type: solubility

INSERT INTO measurements (compound, measurement_type, result) VALUES
  ('CCCOc1ccc(NC(=O)CN2CCN(C)CC2)cc1-c1nc(CC)c(CC)c(=O)[nH]1.O=C(O)C(O)C(O)C(=O)O [tartrate of compound Z]', 'solubility', '> 219 mg/mL'),
  ('CCCOc1ccc(NC(=O)CN2CCN(C)CC2)cc1-c1nc(CC)c(CC)c(=O)[nH]1', 'solubility', '5.3 mg/mL'),
  ('CCCOc1ccc(NC(=O)CN2CCN(C)CC2)cc1-c1nc(CC)c(CC)c(=O)[nH]1.O=C(O)/C=C/C(=O)O [fumarate of compound Z]', 'solubility', '> 24.2 mg/mL'),
  ('CCCOc1ccc(NC(=O)CN2CCN(C)CC2)cc1-c1nc(CC)c(CC)c(=O)[nH]1.O=C(O)/C=C\C(=O)O [maleate of compound Z]', 'solubility', '6.1 mg/mL'),
  ('CCCOc1ccc(NC(=O)CN2CCN(C)CC2)cc1-c1nc(CC)c(CC)c(=O)[nH]1.O=S(=O)(O)O [sulfate of compound Z]', 'solubility', '> 20.2 mg/mL'),
  ('CCCOc1ccc(NC(=O)CN2CCN(C)CC2)cc1-c1nc(CC)c(CC)c(=O)[nH]1.Cl [hydrochlorate of compound Z]', 'solubility', '> 22.8 mg/mL'),
  ('CCCOc1ccc(NC(=O)CN2CCN(C)CC2)cc1-c1nc(CC)c(CC)c(=O)[nH]1.O=C(O)CCC(=O)O [succinate of compound Z]', 'solubility', '> 20.8 mg/mL'),
  ('CC(=O)O.CCCOc1ccc(NC(=O)CN2CCN(C)CC2)cc1-c1nc(CC)c(CC)c(=O)[nH]1 [acetate of compound Z]', 'solubility', '35.8 mg/mL'),
  ('CCCOc1ccc(NC(=O)CN2CCN(C)CC2)cc1-c1nc(CC)c(CC)c(=O)[nH]1.CS(=O)(=O)O [methanesulfonate of compound Z]', 'solubility', '> 22.4 mg/mL');

###

- Assay Notes: Comparison of solubility of compound Z and its salts
- Type: physicochemical
- Condition Info: selected solvent of pH 6.8 (composition not named), aqueous buffer, thermodynamic from solid; pH = 6.8; read-out: Solubility
- Text: An appropriate amount of the sample was weighed in a glass test tube and a selected solvent was gradually added therein to observe the clarification.
Measurement Type: solubility

INSERT INTO results (molecule, result) VALUES
  ('CCCOc1ccc(NC(=O)CN2CCN(C)CC2)cc1-c1nc(CC)c(CC)c(=O)[nH]1.Cl [hydrochlorate of compound Z]', '> 26.6 mg/mL'),
  ('CCCOc1ccc(NC(=O)CN2CCN(C)CC2)cc1-c1nc(CC)c(CC)c(=O)[nH]1.CS(=O)(=O)O [methanesulfonate of compound Z]', '> 23.2 mg/mL'),
  ('CCCOc1ccc(NC(=O)CN2CCN(C)CC2)cc1-c1nc(CC)c(CC)c(=O)[nH]1 [compound Z]', '1.7 mg/mL'),
  ('CCCOc1ccc(NC(=O)CN2CCN(C)CC2)cc1-c1nc(CC)c(CC)c(=O)[nH]1.O=C(O)C(O)C(O)C(=O)O [tartrate of compound Z]', '> 130 mg/mL'),
  ('CCCOc1ccc(NC(=O)CN2CCN(C)CC2)cc1-c1nc(CC)c(CC)c(=O)[nH]1.O=C(O)CCC(=O)O [succinate of compound Z]', '> 20.8 mg/mL'),
  ('CCCOc1ccc(NC(=O)CN2CCN(C)CC2)cc1-c1nc(CC)c(CC)c(=O)[nH]1.O=S(=O)(O)O [sulfate of compound Z]', '> 24.4 mg/mL'),
  ('CCCOc1ccc(NC(=O)CN2CCN(C)CC2)cc1-c1nc(CC)c(CC)c(=O)[nH]1.O=C(O)/C=C/C(=O)O [fumarate of compound Z]', '> 27 mg/mL'),
  ('CCCOc1ccc(NC(=O)CN2CCN(C)CC2)cc1-c1nc(CC)c(CC)c(=O)[nH]1.O=C(O)/C=C\C(=O)O [maleate of compound Z]', '46.4 mg/mL'),
  ('CC(=O)O.CCCOc1ccc(NC(=O)CN2CCN(C)CC2)cc1-c1nc(CC)c(CC)c(=O)[nH]1 [acetate of compound Z]', '22.6 mg/mL');
